Provide the recorded koff for the entries that follow.
# measured on: T1, biotinylated hTfR1 (Acro Bio p/n TFR-H82E5) (human, UniProt P02786 89-760, biotinylated; site not stated)
# T1 construct: Bought reagent of the BLI assay
# test method notes: BLI, Octet RH16, biotinylated TfR1 on streptavidin sensor; Fab-siRNA conjugate
Give just the number in s⁻¹; leave the unit off.

Lab note: measured koff of Fab0073-siRNA conjugate (Fab, V domains shown, siRNA-linker on a reduced cysteine; chain and residue not stated, also called Fab0073 (BLI conjugate columns)) VH: EVQLVESGGGLVQPGGSLRLSCATSGYTFKSYWMHWVRQAPGKGLEWVAEINPTNGRTNYIEKFKSRITLSVDKSKSTVYLQMNSLRAEDTAVYYCARGTRAYHYWGQGTLVTVSS VL: DIQLTQSPSSLSASVGDRVTITCRASDNLYRNLAWYQQKPGKAPKLLIYDATKLASGVPSRFSGSGSGTDYTLTISSLQPEDFATYYCQHFWGTPLTFGQGTKVEIKR was 0.000615

Lab note: measured koff of Fab0062-siRNA conjugate (Fab, V domains shown, siRNA-linker on a reduced cysteine; chain and residue not stated, also called Fab0062 (BLI conjugate columns)) VH: EVQLVESGGGLVQPGGSLRLSCATSGYTFTSYWMHWVRQAPGKGLEWVAEINPTNGRVNYIEKFKSRITLSVDKSKSTVYLQMNSLRAEDTAVYYCARGTRAYHYWGQGTLVTVSS VL: DIQLTQSPSSLSASVGDRVTITCRASDGLYSNLAWYQQKPGKAPKLLIYDAFNLASGVPSRFSGSGSGTDYTLTISSLQPEDFATYYCQHFWGTPLTFGQGTKVEIKR was 0.00123
